Values were extracted from PubChem BioAssay AID602168.

molecular target: Nuclear receptor coactivator 1 (Homo sapiens) (UniProt Q15788); assay: SRC1 coactivator transcriptional activity inhibitors, dose response, counter-screen for SRC3 inhibitor project, cell-based, luminescence (AID 602168); settings: Cell-based SRC1 luciferase reporter
Sequence (Q15788 whole entry, looked up): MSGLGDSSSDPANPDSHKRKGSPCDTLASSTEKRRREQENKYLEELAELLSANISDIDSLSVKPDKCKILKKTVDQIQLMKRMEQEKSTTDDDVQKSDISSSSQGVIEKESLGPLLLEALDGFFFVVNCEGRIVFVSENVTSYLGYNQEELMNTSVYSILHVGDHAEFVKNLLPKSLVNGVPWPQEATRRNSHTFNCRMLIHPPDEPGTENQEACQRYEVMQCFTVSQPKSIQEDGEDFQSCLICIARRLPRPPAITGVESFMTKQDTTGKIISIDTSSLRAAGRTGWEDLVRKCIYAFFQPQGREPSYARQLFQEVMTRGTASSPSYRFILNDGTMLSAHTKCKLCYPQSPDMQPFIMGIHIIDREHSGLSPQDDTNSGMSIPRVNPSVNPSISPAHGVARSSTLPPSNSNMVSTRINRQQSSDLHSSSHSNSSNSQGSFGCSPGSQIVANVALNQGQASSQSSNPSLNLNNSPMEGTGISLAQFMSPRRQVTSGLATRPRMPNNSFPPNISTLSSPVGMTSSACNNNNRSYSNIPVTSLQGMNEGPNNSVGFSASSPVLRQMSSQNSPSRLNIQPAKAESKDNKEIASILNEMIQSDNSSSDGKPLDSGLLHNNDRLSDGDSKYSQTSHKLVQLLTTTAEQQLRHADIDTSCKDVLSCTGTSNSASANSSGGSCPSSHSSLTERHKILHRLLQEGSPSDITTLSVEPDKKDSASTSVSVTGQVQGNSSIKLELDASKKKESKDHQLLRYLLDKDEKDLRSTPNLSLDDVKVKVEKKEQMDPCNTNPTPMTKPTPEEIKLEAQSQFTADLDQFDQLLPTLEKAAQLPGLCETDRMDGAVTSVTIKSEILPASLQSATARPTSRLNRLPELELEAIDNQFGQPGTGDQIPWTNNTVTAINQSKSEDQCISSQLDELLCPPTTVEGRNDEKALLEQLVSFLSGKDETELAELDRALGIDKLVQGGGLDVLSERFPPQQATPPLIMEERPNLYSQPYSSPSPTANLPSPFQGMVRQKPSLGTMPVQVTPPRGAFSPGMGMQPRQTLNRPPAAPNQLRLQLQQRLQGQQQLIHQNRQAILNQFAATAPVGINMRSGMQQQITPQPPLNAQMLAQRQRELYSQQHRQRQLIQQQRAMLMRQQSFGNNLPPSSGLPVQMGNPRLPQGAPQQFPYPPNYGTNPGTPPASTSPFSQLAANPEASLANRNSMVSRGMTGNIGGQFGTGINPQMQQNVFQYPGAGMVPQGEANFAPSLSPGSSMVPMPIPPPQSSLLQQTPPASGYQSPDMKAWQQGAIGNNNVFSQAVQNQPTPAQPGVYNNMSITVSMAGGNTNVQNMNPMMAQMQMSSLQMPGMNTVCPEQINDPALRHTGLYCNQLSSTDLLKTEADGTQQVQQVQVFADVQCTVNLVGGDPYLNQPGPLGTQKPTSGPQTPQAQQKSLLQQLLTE
Active and inactive are the calls of the source. How the calls were made is not given here.
Your answer must be one of the following: active, inactive

COc1cc(/C=C2\CC(C(C)(C)C)C/C(=C\c3cc(OC)c(OC)c(OC)c3)C2=O)cc(OC)c1OC (configuration not stated) :: inactive

Request: Can you look up the reported call for COC(=O)c1cc(S(=O)(=O)NCCc2ccc(Cl)cc2)c[nH]1 for me?
Response: inactive

Request: Please share the test call associated with Cc1cccc(CN2CCN(C(=O)CCl)CC2)c1 .
Response: inactive

Request: Each molecule tested received a call. Report the one for COc1ccc(/C=C2/SC(=S)N(CCC(=O)O)C2=O)cc1 .
Response: inactive

Request: Hi team, can someone confirm the assay call for CCOC(=O)C(C(C)=O)c1c(Br)c(O)c(O)c2c(C(=O)c3ccc(C)cc3)coc12 (configuration not stated) ?
Response: inactive

Request: Fill in: this test's call for CC(=O)c1cccc(NC(=O)Nc2ccc3c(c2)N(C)C(=O)CS3)c1 is ___
Response: inactive

Request: Hi, do you know how CC(=O)Nc1ccc(SCC(=O)c2cc(C)n(-c3ccccc3F)c2C)cc1 came out in this test?
Response: inactive

Request: Field: outcome | Entry: O=C(CNc1cccc([N+](=O)[O-])c1)N/N=C/c1ccc([N+](=O)[O-])o1
Response: inactive

Request: Dear all, I need the recorded test outcome for COc1ccc(C(C(=O)NC2CCCCC2)N(C(=O)CCl)c2ccc(OC)cc2)cc1 (configuration not stated) , thank you.
Response: inactive

Request: Tell me the assay call for COc1cc2[nH]c3c(Cl)ncnc3c2cc1OC please.
Response: inactive

Request: Hey, what did the test say about COc1cc(/C=N/NC(N)=S)cc(Br)c1OCc1ccccc1F ?
Response: inactive

Request: Called result for C=C1C(=O)[C@]23C[C@H]1CCC2[C@@]1(C)C(C[C@@H]3O)[C@](C)(C(=O)OC)CC[C@@H]1O (some centres not stated)
Response: inactive

Request: What outcome does the record of this test show for O=C(CCl)Nc1cccc(-c2cnc3ccccc3n2)c1 ?
Response: inactive

====

molecular target: Nuclear receptor coactivator 1 (Homo sapiens) (UniProt Q15788); experiment: SRC1 coactivator transcriptional activity inhibitors, dose response, counter-screen for SRC3 inhibitor project, cell-based, luminescence (AID 602168); details: Cell-based SRC1 luciferase reporter
Activity calls are given as the source filed them. No rule for the calls is given here.
Property Name: IC50

These solved cases illustrate the format of a correct answer.
COc1cc2oc(=O)cc(-c3ccc(-c4ccc(CO)cc4)cc3)c2c(OC)c1OC :: 8.05 µM
CC(=O)c1ccc(Nc2c3c(nc4ccccc24)CCCC3)cc1 :: > 35.9 µM (inactive)
COc1ccc(-c2cn[nH]c2-c2ccc(OC)cc2O)cc1 :: 8.83 µM
O=C(Nc1nc2cc3c(cc2s1)OCCO3)C1=COCCO1 :: inactive
Cc1ccc2nc(-c3ccncc3)c(NC3CCCC3)n2c1 :: inactive
COc1ccc(C)cc1NS(=O)(=O)c1ccc(NC(=O)CN(c2cc([N+](=O)[O-])ccc2C)S(C)(=O)=O)cc1 :: inactive

// each listed compound needs a value for IC50
1. O=[N+]([O-])c1ccc(N(CCO)CCO)c2c1no[n+]2[O-]
2. O=C(CC(Nc1ccc(Cl)cc1Cl)C(=O)O)c1ccccc1 (stereo not given)
3. COc1cc2c(cc1OC)C(C)N(C(=O)c1cccc([N+](=O)[O-])c1)CC2 (stereo not given)
4. COc1ccccc1C(=O)N(CCC1CCCN1C)c1nc2ccccc2s1 (stereo not given)
5. COc1cc(/C=N/NC(=Nc2ccc(C)cc2)c2nc3ccccc3s2)ccc1O
6. Cc1cccc(NC(=O)c2cc(Cl)ccc2[N+](=O)[O-])c1

Response:
inactive
> 35.9 µM (inactive)
inactive
> 35.9 µM (inactive)
8.17 µM
inactive

Please supply IC50 for each of the following items, keeping them in order.
1. COCCNC(=O)c1cc(-c2ccccn2)nc2ccc(S(=O)(=O)N3CCC(C)CC3)cc12
2. Cc1cc(/C=C2\Cc3ccccc3C2=O)c(C)n1-c1ccccc1
3. CNc1ncnc(Sc2nc(N)nc3nc[nH]c23)c1[N+](=O)[O-]

Response:
["> 35.9 µM (inactive)", "inactive", "> 35.9 µM (inactive)"]

Kindly give each listed record's IC50.
1. O=C(Nc1nc2ccccc2s1)C1c2ccccc2Oc2ccccc21
2. C(=N\Nc1ccc2ccccc2n1)/c1ccc2c(c1)OCCO2

Response:
["inactive", "inactive"]

Items follow; give IC50 for each.
1. CN1C(=O)C2(C(C#N)=C(N)N(c3cc(Cl)cc(Cl)c3)C3=C2C(=O)CC(C)(C)C3)c2ccccc21 (stereo not given)
2. O=C(Nc1cccnc1)c1ccc(C(=O)Nc2cccnc2)cc1
3. COC(=O)c1c(C)n(-c2ccc(OC)cc2)c2ccc(O)cc12
4. C(=N\Nc1nc2ccccc2[nH]1)/c1cccc2cccnc12

Response:
1. > 35.9 µM (inactive)
2. > 35.9 µM (inactive)
3. 8.12 µM
4. > 35.9 µM (inactive)

For each of the items listed, what is its IC50?
1. Cc1ccc2occ(/C=N/NC(=O)c3ccccc3Br)c(=O)c2c1
2. Nc1ccc(-c2cc3ccccc3oc2=O)cc1
3. CN1CCN(c2ccc(NC(=O)N3CCc4ccccc43)cc2)CC1
4. CN(C)/C=C/C(=O)c1ccc2noc(-c3ccccc3)c2c1
5. COc1ccc(Nc2ccncc2[N+](=O)[O-])cc1
6. COc1ccc(CCNC(=O)c2nnn(-c3ccc4c(c3)OCCO4)c2N)cc1OC

Response:
> 35.9 µM (inactive)
> 35.9 µM (inactive)
> 35.9 µM (inactive)
inactive
9.17 µM
> 35.9 µM (inactive)

List the reported IC50 of each compound below.
1. c1csc(Cc2nn3c(-c4ccncc4)nnc3s2)c1
2. Fc1ccc(CSc2nnc(-c3ccncc3)o2)cc1

Response:
1: inactive; 2: 3.43 µM

For each of the compounds below, note its IC50.
1. CCOc1ccc(Nc2cc(C)nc(-n3nc(C)cc3C)n2)cc1
2. Cc1ccc2occ(/C=N/NC(=O)[C@@H](N)Cc3ccccc3)c(=O)c2c1
3. COc1cccc(NC(=O)CSc2nnc(-c3cc(C)n(-c4ccccc4)c3C)o2)c1
4. NC(=O)c1sc2nc3c(c(-c4ccco4)c2c1N)CCC3

Response:
["> 35.9 µM (inactive)", "inactive", "> 35.9 µM (inactive)", "3.29 µM"]

Need IC50 for each of these compounds.
1. COc1cc2c(ccc3cc(OC)c(OC)c(O)c32)cc1O
2. CCOC(=O)c1cc2sccc2n1CC(=O)N1CCc2ccccc21
3. C=CCn1c(C)cc(C(=O)COc2ccc(C)nc2[N+](=O)[O-])c1C
4. Cc1nc([N+](=O)[O-])c(Sc2nc3ccccc3n2C)n1Cc1ccccc1
5. CN[C@H]1CCc2cc(OC)c(OC)c(OC)c2-c2ccc(OC)c(=O)cc21
6. COc1ccc2[nH]c(=O)c(CN(CCN3CCCC3)C(=O)Nc3ccccc3Cl)cc2c1
7. CCOc1ccc(/C=C2\SC(=S)N(CCC(=O)O)C2=O)cc1

Response:
inactive
> 35.9 µM (inactive)
> 35.9 µM (inactive)
> 35.9 µM (inactive)
> 35.9 µM (inactive)
inactive
9.2 µM
